Experiment: MRT (0 to infinity) in Sprague-Dawley rat at 30 mg/kg, po by LC-MS/MS analysis
Type: ADME, organism-based
Details: in vivo
Value type: MRT inf (h)
Write it as a number; the unit h goes unstated.

MRT inf in this record for Cl.Oc1ccc2[nH]c(-c3ccc4c(Cl)cc(Cl)c(O)c4n3)cc2c1 : 4.88

====

Test system: Mus musculus
Experiment: Induction of cell proliferation in C57BL/6 mouse hippocampal neurons in CA2 region assessed as BrdU-incorporation at 0.5 uL/hr, icv for 7 days by immunohistochemical analysis (reference value: 2.4%)
Format: functional
We use 40% as the dividing line for Activity: on or above the line is y, below is n.

Study these solved cases before continuing.
[
  {
    "Smiles string": "Cl.Oc1c(Cl)cc(Cl)c2ccc(-c3cc4cc5c(cc4[nH]3)OCO5)nc12",
    "Label": "n"
  },
  {
    "Smiles string": "COc1ccc2[nH]cc(CCNC(C)=O)c2c1",
    "Label": "n"
  },
  {
    "Smiles string": "Cl.Oc1c(Cl)cc(Cl)c2ccc(-c3cc4cc(Cl)ccc4[nH]3)nc12",
    "Label": "n"
  }
]

Pending compound:
Incoming: Say whether Cl.Oc1cccc2ccc(-c3cc4ccc5c(c4[nH]3)OCO5)nc12 shows Activity of 40% or more.
Outgoing: y
